Test system: LOX IMVI melanoma
measurement.protocol: NCI tumour cell line growth inhibition, 48 h
Field: TGI. Provide a value for each of the molecules that follow.

Recorded TGI, per entry:
{"molecule": "NCCNc1c2c(c(NCCN)c3c(CO)c[nH]c13)C(=O)c1ccccc1C2=O", "value": "> 100 µM"}
{"molecule": "CC12CCC3C(CCC4Cc5[nH]c6ccccc6c5CC43C)C1CCC2O (centres undefined)", "value": "7.13 µM"}
{"molecule": "CC(=O)ON(C(C)=O)c1ccc(-c2nc3ccccc3s2)cc1", "value": "> 66.7 µM"}
{"molecule": "CCC(C)n1c(C)nc2c1C(=O)c1ccccc1C2=O (centres undefined)", "value": "> 100 µM"}
{"molecule": "Cc1ccc(-c2nc(C)c(C(=O)Nc3ccc(Cl)cc3)s2)cc1", "value": "> 100 µM"}
{"molecule": "CS/C(=N\\C(=S)N(C)C)N(c1ccccc1)c1nc(=[N+](C)C)ss1", "value": "18.1 µM"}
{"molecule": "Cc1ccc2c3c1O[C@H]1c4[nH]c5ccccc5c4C[C@@]4(O)[C@@H](C2)N(C)CC[C@]314", "value": "29.6 µM"}
{"molecule": "N#Cc1c(N2CCCC2)nsc1NCc1ccccc1", "value": "> 100 µM"}

**Query** Which TGI is reported for this molecule? `F`
**Result** > 6870 µM

* * *

System: NCI-H460 lung
measurement.protocol: NCI tumour cell line growth inhibition, 48 h
endpoint.label: TGI (µM)
Give bare numbers, in µM.

Some solved entries appear below for comparison.
{"molecule": "Brc1ccc2[nH]cc(-c3csc(-c4ccccn4)n3)c2c1", "target.system": "NCI-H460 lung", "value": 22.4}
{"molecule": "CC[C@]1(O)CC(OC2CC(N(C)C)C(O)C(C)O2)c2c(cc3c(c2O)C(=O)c2c(O)cccc2C3=O)[C@@H]1C(=O)OC (stereo not given in full)", "target.system": "NCI-H460 lung", "value": 3.46}
{"molecule": "COc1cc2c(/C=C3/C(=O)N(C)c4ccccc43)c(Cl)[nH]c2cc1C", "target.system": "NCI-H460 lung", "value": 1.36}

Moving on to another molecule below.
**Query** Record request: TGI value, item COc1ccc(C2CC(c3cc(OC)c(OC)c(OC)c3)=NO2)cc1OCCCCOc1cc2c(cc1OC)C(=O)N1CCC[C@H]1C=N2 (stereo not given in full)
**Result** 4

* * *

Give measured TGI for each item. Keep answers brief.
Tested on: MDA-MB-435
measurement.protocol: NCI tumour cell line growth inhibition, 48 h

In the examples that follow, each entry is paired with its recorded TGI.
{"smiles.str": "NCC(=O)NC1(c2cc3ccccc3s2)CCCCC1", "target.system": "MDA-MB-435", "value": "> 100 µM"}
{"smiles.str": "COc1cc(-c2cn(S(=O)(=O)c3ccc(C)cc3)c3ccccc23)nc(-c2cn(S(=O)(=O)c3ccc(C)cc3)c3ccccc23)n1", "target.system": "MDA-MB-435", "value": "0.47 µM"}
{"smiles.str": "O=P1(O)C=CC2(CCCC2)O1", "target.system": "MDA-MB-435", "value": "> 100 µM"}
{"smiles.str": "CCOC(=O)c1ccc(Nc2cnc3cc(C(F)(F)F)ccc3n2)cc1", "target.system": "MDA-MB-435", "value": "> 100 µM"}
{"smiles.str": "Cc1ccc(S(=O)(=O)OC2CCN(C)CC2)cc1", "target.system": "MDA-MB-435", "value": "> 100 µM"}

Now for a further molecule.
**Query** Request: TGI, test system MDA-MB-435, entry `COc1c(C=O)c2c(c(OC)c1OC)-c1ccc(OC)c(=O)cc1[C@@H](NC(C)=O)CC2`
**Result** 24.6 µM
